Taken from paper PMC6405215.

biological target: recombinant human DRV1 (Homo sapiens); experiment: Electrical cell substrate impedance sensing; type: cell-based; details: CHO cells expressing DRV1; concentration not stated

SMILES_STR	ASSAY_SYSTEM	direction of impedance change
COc1cccc(C(=O)Nc2nnc(S(=O)(=O)N3CCOCC3)s2)c1	recombinant human DRV1 (Homo sapiens)	increased impedance
Cc1c(-c2cccc(NC(=O)c3ccc(F)c(F)c3)c2)nc2ncccn12	recombinant human DRV1 (Homo sapiens)	increased impedance

---

molecular target: recombinant human DRV1 (Homo sapiens, UniProt O75388); assay: Electrical cell substrate impedance sensing; type: cell-based; details: CHO cells expressing DRV1; concentration not stated
Sequence (O75388 whole entry): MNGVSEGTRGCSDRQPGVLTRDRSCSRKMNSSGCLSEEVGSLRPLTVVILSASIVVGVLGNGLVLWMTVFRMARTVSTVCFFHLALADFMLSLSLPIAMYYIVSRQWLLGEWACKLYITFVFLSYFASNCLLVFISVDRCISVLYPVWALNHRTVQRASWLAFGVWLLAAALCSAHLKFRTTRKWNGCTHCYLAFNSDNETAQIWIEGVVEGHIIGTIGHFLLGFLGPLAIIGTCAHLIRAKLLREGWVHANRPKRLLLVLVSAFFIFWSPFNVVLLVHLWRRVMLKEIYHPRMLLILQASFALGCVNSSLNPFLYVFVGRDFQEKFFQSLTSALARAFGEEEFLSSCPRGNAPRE

COMPOUND	direction of impedance change
O=C(Nc1nnc(S(=O)(=O)N2CCOCC2)s1)c1cccc(Br)c1	increased impedance
COc1cccc(C(=O)Nc2cccc(-c3nc4ncccn4c3C)c2)c1	increased impedance
COc1ccccc1N1CCN(CCN(C(=O)c2ccc(F)cc2)c2ccccn2)CC1 [pMPPF, reference compound]	increased impedance
